Measured IC50 accompanies every entry in the list below.
Test system: classical complement pathway
procedure_text: In vitro haemolysis assay (inhibition of classical complement pathway)
Type: cell-based, human
setup_conditions: Table 4; valine 3 versus isoleucine 3 pairs; read-out: CP hemolysis IC50
Positions of bridges follow the written chain, without caps; N, C: chain ends. Residues, ends and D or L forms follow the SMILES beside them.
# unit: nM | format: bare number

compound	data_value
CC[C@H](C)[C@H](NC(C)=O)C(=O)N[C@H]1CSSC[C@@H](C(=O)N[C@H](C(=O)N[C@@H](CCC(=O)O)C(=O)NCC(=O)N[C@@H](CCC(=O)O)C(N)=O)[C@@H](C)O)NC(=O)[C@H](CCCNC(=N)N)NC(=O)[C@H](Cc2c[nH]cn2)NC(=O)[C@H](CCC(=O)O)NC(=O)CNC(=O)[C@H](Cc2c[nH]c3ccccc23)NC(=O)[C@H](CC(=O)O)NC(=O)[C@H](CCC(N)=O)NC(=O)[C@H](Cc2c[nH]c3ccccc23)NC(=O)[C@H]([C@@H](C)CC)NC1=O [Compound 24] (Ac-ICIWQDWGEHRCTEGE-NH2; disulfide 2-12)	90

Next compound, please.
Query string: Look up IC50 of CC[C@H](C)[C@H](NC(C)=O)C(=O)N[C@H]1CSSC[C@@H](C(=O)N[C@H](C(N)=O)[C@@H](C)O)NC(=O)[C@H](CO)NC(=O)[C@H](Cc2c[nH]cn2)NC(=O)[C@H](CCC(=O)O)NC(=O)CNC(=O)[C@H](Cc2c[nH]c3ccccc23)NC(=O)[C@H](CC(=O)O)NC(=O)[C@H](CCC(N)=O)NC(=O)[C@H](Cc2c[nH]c3ccccc23)NC(=O)[C@H](C(C)C)NC1=O [F, reference compound] (Ac-ICVWQDWGEHSCT-NH2; disulfide 2-12) and report it.
Result string: 540
